# System: average blood pressure
# ASSAY OVERVIEW: Sympathomimetic action: increase of the average blood pressure in % of initial value (awake dogs)
# Type: in vivo
# CONDITION SUMMARY: i.v. 0.05 mg/kg
VALUE TYPE: increase of the average blood pressure in % of initial value

{"MOLECULE": "CCNCC(O)c1cccc(O)c1 (stereo not shown) [E, 1-(3'-hydroxyphenyl)-2-ethylaminoethanol, reference compound]", "ASSAY VALUE": "25%"}
{"MOLECULE": "NCC(O)c1cccc(O)c1 (stereo not shown) [D, 1-(3'-hyroxyphenyl)-2-aminoethanol, reference compound]", "ASSAY VALUE": "50-70%"}
{"MOLECULE": "Oc1cccc(C2CNC3(CCCCC3)O2)c1 (stereo not shown) [A]", "ASSAY VALUE": "50-80%"}
{"MOLECULE": "Oc1cccc(C2CNC3(CCCCCC3)O2)c1 (stereo not shown) [B]", "ASSAY VALUE": "40-70%"}

All figures here come from patent US3989836A.
